Measured pIC50 of individual entries
testTarget: human chemokine receptor CXCR7 (Homo sapiens (Human), UniProt P25106)
Sequence (P25106 whole entry): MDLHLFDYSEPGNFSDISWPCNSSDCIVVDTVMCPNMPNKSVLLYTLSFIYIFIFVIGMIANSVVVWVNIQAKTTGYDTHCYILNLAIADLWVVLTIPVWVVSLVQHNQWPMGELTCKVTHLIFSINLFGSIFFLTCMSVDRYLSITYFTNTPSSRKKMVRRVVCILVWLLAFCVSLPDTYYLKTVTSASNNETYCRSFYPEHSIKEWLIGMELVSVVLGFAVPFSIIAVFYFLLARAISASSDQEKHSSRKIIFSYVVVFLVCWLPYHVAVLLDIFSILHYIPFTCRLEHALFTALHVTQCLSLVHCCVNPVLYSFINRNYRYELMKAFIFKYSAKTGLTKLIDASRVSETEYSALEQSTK
assayProcedure: Tango CXCR7-bla U2OS beta-arrestin recruitment assay (beta-lactamase reporter, FRET), antagonism of CXCL12/SDF1-α
Format: cell-based
conditionContext: antagonistic effect on CXCR7; Tango CXCR7-bla U2OS cells, CXCL12/SDF1-α at its EC80
pIC50: −log10 of the molar value.
assayReadout: pIC50

compound="C[C@@H](NC(=O)[C@H]1CN(CC2CC2)CC[C@@H]1NC(=O)c1cc(-c2ccc(F)cc2F)no1)c1ccccn1 (single isomer, unassigned) [Example 1.154a]" quantitativeresult=7.34
compound="CC(NC(=O)[C@H]1CN(C2CCCCC2)CC[C@@H]1NC(=O)c1cc(-c2ccc(F)cc2F)on1)c1ncon1 (stereo partly shown)" quantitativeresult=7.28
compound="CC(NC(=O)[C@H]1CN(CC2CC2)CC[C@@H]1NC(=O)c1cc(-c2ccc(F)cc2F)on1)C1CCCO1 (stereo partly shown)" quantitativeresult=6.54
compound=CN(C)C(=O)[C@@H]1CN(C2CC3(CCC3)C2)CC[C@H]1NC(=O)c1cc(-c2ccc(F)cc2F)on1 quantitativeresult=6.36
compound="C[C@@H](NC(=O)[C@H]1CN(C2CCCCC2)CC[C@@H]1NC(=O)c1noc(-c2ccc(F)cc2F)n1)c1ccccn1 (single isomer, unassigned) [Example 1.156a]" quantitativeresult=7.72
compound=O=C(N[C@H]1CCN(CC2(C(F)F)CC2)C[C@@H]1C(=O)NC1(c2ncccn2)CC1)c1cc(-c2ccc(F)cc2F)on1 quantitativeresult=7.74
compound="C[C@@H](NC(=O)[C@@H]1CN(C2CCCC2)CC[C@H]1NC(=O)c1cc(-c2c(F)cc(F)cc2F)on1)c1ccccn1 (single isomer, unassigned) [Example 1.122b]" quantitativeresult=7.77

* * *

testTarget: human chemokine receptor CXCR7 (Homo sapiens (Human), UniProt P25106)
assayProcedure: Tango CXCR7-bla U2OS beta-arrestin recruitment assay (beta-lactamase reporter, FRET), antagonism of CXCL12/SDF1-α;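 also: compounds preincubated 15 min before CXCL12 addition, then 22 h at 37 °C, FRET emission ratio read with CCF4-AM substrate after 2 h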
Assay type: cell-based
conditionContext: antagonistic effect on CXCR7; Tango CXCR7-bla U2OS cells, CXCL12/SDF1-α at its EC80
assayReadout: IC50

molecule=CC(C)CCN1CC[C@@H](NC(=O)c2cc(-c3ccc(F)cc3F)on2)[C@H](C(=O)N(C)C)C1 assayreadout=IC50 result="293 nM"
molecule="O=C(N[C@@H]1CCN(C2CCCCC2)C[C@H]1C(=O)NCc1cnccn1)c1cc(-c2ccc(F)cc2F)on1 (racemic)" assayreadout=IC50 result="295 nM"
molecule=O=C(N[C@H]1CCN(C2CCCCC2)C[C@@H]1C(=O)NC1(c2ccc(F)cn2)CC1)c1cc(-c2ccc(F)cc2F)on1 assayreadout=IC50 result="319 nM"
molecule="CN(C)C(=O)[C@@H]1CN(C2CCCCC2)CC[C@H]1NC(=O)c1nnc(-c2ccc(F)cc2F)o1 (single isomer, unassigned) [Example 3.003a]" assayreadout=IC50 result="771 nM"
molecule=Cc1ccc(-c2cc(C(=O)N[C@H]3CCN(CC4CC4)C[C@@H]3C(=O)NC3(c4ncccn4)CC3)no2)cc1C assayreadout=IC50 result="210 nM"
molecule="Cc1nc(CNC(=O)[C@@H]2CN(C3CCCCC3)CC[C@H]2NC(=O)c2cc(-c3ccc(F)cc3F)on2)cs1 (racemic)" assayreadout=IC50 result="855 nM"
molecule="CC(NC(=O)[C@H]1CN(CC2CC2)CC[C@@H]1NC(=O)c1cc(-c2ccc(F)cc2F)on1)c1ncccn1 (stereo partly shown) [Example 4.080a]" assayreadout=IC50 result="851 nM"
